The measurements presented in this section are drawn from patent US20030068675.

Target: T1, ZFP SBS#1374 (synthetic, UniProt P08047)
T1 chain: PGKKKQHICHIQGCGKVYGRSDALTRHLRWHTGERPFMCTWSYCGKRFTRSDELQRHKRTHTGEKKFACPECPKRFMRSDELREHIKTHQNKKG
Test: EMSA
Conditions: tags: MBP fusion
Endpoint: pKd
// pKd here means minus log10 of the molar concentration (mol/L)

input: Give the measured pKd of CCGGCGGTG (dsDNA) DNA 1: CCGGCGGTG DNA 2: CACCGCCGG .
output: 11.52
